system: Phosphorylation of STAT6 in human PBMC (CD19+ B cells); assay: Phosphorylated STAT6 (pSTAT6) flow cytometry assay in human PBMC, IL-4 stimulated; type: cell-based; conditions: compound 1 hour, 1 ng/ml IL-4 for 15 minutes, read-out: STAT6 IL4 pSTAT6 assay in PBMC: Average IC50
pIC50: −log10 of the molar value.
Endpoint Name: pIC50

Known pIC50 results, listed for orientation:
>  <Compound>
CN(C)C(=O)c1cc2cc(C3=CCCN(C(=O)Cc4n[nH]c5ccccc45)C3)ccc2o1 [Example I-302]

>  <Endpoint Name>
pIC50

>  <Recorded Result>
< 4.00

$$$$
>  <Compound>
CN(C)C(=O)c1cc2ccc(C3=CCCN(C(=O)C45CC(C(F)(F)F)(C4)C5)C3)cc2[nH]1 [Example I-55]

>  <Endpoint Name>
pIC50

>  <Recorded Result>
4.00 to 5.00

$$$$
>  <Compound>
CN(C)C(=O)c1cc2ccc(C3=CCCN(C(=O)CCCn4ncc5nc(Cl)ccc54)C3)cc2[nH]1 [Example I-90]

>  <Endpoint Name>
pIC50

>  <Recorded Result>
4.00 to 5.00

$$$$
>  <Compound>
CNc1ccc(-c2cc(C3=CCCN(C(=O)CCn4ccnn4)C3)cc3[nH]c(C(=O)N(C)C)cc23)cc1 [Example I-113]

>  <Endpoint Name>
pIC50

>  <Recorded Result>
> 7.00

$$$$
>  <Compound>
CN(C)C(=O)c1cc2ccc(C3=CCCN(C(=O)c4ccc(O)c(F)c4)C3)cc2[nH]1 [Example I-48]

>  <Endpoint Name>
pIC50

>  <Recorded Result>
4.00 to 5.00

$$$$
>  <Compound>
CN(C)C(=O)c1cc2cc([C@H]3CC[C@H](CO)N(C(=O)CCn4ccnn4)C3)ccc2o1 (single isomer, unassigned) [Example I-157]

>  <Endpoint Name>
pIC50

>  <Recorded Result>
< 4.00

$$$$

Recorded pIC50 of CN(C)C(=O)c1cc2cc(C3=CCCN(C(=O)CCn4nnc5ccccc54)C3)ccc2o1 [Example I-217] , please.
< 4.00

Repeat for the following compound: CN(C)C(=O)c1cc2ccc(C3=CCCN(C(=O)OCn4ccnn4)C3)cc2[nH]1 [Example I-120]
< 4.00

----------
system: Phosphorylation of STAT6 in human PBMC (CD19+ B cells); experiment: Phosphorylated STAT6 (pSTAT6) flow cytometry assay in human PBMC, IL-4 stimulated; assay type: cell-based; settings: compound 1 hour, 1 ng/ml IL-4 for 15 minutes, read-out: STAT6 IL4 pSTAT6 assay in PBMC: Average IC50
pIC50: −log10 of the molar value.
Endpoint Name: pIC50

Known pIC50 results, listed for orientation:
>  <Compound>
CN(C)C(=O)c1cc2cc(C3=CCCN(C(=O)CCc4cnccn4)C3)ccc2o1 [Example I-216]

>  <pIC50>
< 4.00

$$$$
>  <Compound>
CN(C)C(=O)c1cc2ccc(C3=CCCN(C(=O)C(c4ccc(F)cc4)c4ccc(F)cc4)C3)cc2[nH]1 [Example I-160]

>  <pIC50>
< 4.00

$$$$
>  <Compound>
CNc1ccc(-c2cc(C3=CCCN(C(=O)CCn4ccnn4)C3)cc3[nH]c(C(=O)N(C)C)cc23)nc1 [Example I-116]

>  <pIC50>
6.00 to 7.00

$$$$
>  <Compound>
CN(C)C(=O)c1cc2ccc(C3=CCCN(C(=O)CCc4ccon4)C3)cc2[nH]1 [Example I-20]

>  <pIC50>
< 4.00

$$$$
>  <Compound>
O=C(CCn1ccnn1)N1CCC=C(c2ccc3oc(C(=O)N4CCCCC4)cc3c2)C1 [Example I-128]

>  <pIC50>
4.00 to 5.00

$$$$
>  <Compound>
CN(C)C(=O)c1cc2cc([C@H]3CN(C(=O)CCn4ccnn4)CC[C@@H]3O)ccc2o1 (single isomer, unassigned) [Example I-210]

>  <pIC50>
< 4.00

$$$$
>  <Compound>
CN(C)C(=O)c1cc2ccc(C3=CCCN(C(=O)CC(C)(O)C(F)(F)F)C3)cc2[nH]1 (centres unmarked) [Example I-46]

>  <pIC50>
4.00 to 5.00

$$$$
>  <Compound>
CN(C)C(=O)c1cc2cc(C3=CCCN(C(=O)CCc4cn5ccccc5n4)C3)ccc2o1 [Example I-251]

>  <pIC50>
< 4.00

$$$$
>  <Compound>
CN(C)C(=O)c1cc2ccc(C3=CCCN(C(=O)CCn4ccnn4)C3)cc2s1 [Example I-269]

>  <pIC50>
4.00 to 5.00

$$$$
>  <Compound>
CN(C)C(=O)c1nc2cc(C3=CCCN(C(=O)CCn4ccnn4)C3)ccc2o1 [Example I-214]

>  <pIC50>
< 4.00

$$$$

Recorded pIC50 of CN(C)C(=O)c1cc2ccc(C3=CCCN(C(=O)CCc4ccn(C)n4)C3)cc2[nH]1 [Example I-10] , please.
< 4.00

Repeat for the following compound: CC(=O)NCc1ccc(CC(=O)N2CCC=C(c3ccc4oc(C(=O)N(C)C)cc4c3)C2)cc1 [Example I-252]
< 4.00

Repeat for the following compound: CN(C)C(=O)c1cc2ccc(C3=CCCN(C(=O)CN4CCOC4=O)C3)cc2[nH]1 [Example I-42]
4.00 to 5.00

Repeat for the following compound: CNc1ccc(-c2cc(C3=CCCN(C(=O)CCn4ccnn4)C3)cc3[nH]c(C(=O)N(C)C)cc23)c(F)c1 [Example I-115]
5.00 to 6.00

Repeat for the following compound: CN(C)C(=O)c1cc2cc(C3=CCCN(C(=O)Cc4ccncn4)C3)ccc2o1 [Example I-270]
< 4.00

Numbers sourced from patent US20250214977A1.
